Reported values of growth inhibition for individual entries
Assay: NCI Yeast Anticancer Drug Screen. Data for the rad50 strain (AID 155);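 also: 0% = growth of vehicle-only cultures of the same strain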
Conditions: S. cerevisiae rad50 strain growth inhibition; at 50.0 µM; stronger effect = higher value
This is part of a sample that, as a whole, favours compounds with a hit. Of some 79,000 tested, about 15% had one in any assay. The source made the active and inactive calls. Rule as the data show it: active = growth inhibition above about 70%; inactive = the rest.

- COMPOUND: "CC1=C(c2ccco2)C(c2ccco2)OC1=O (stereo unspecified)"
  growth inhibition: "8.45% (inactive)"
- COMPOUND: "CCOP(=O)(OCC)/C(=C\\n1ccc(=O)[nH]c1=S)C(=O)OC"
  growth inhibition: "-54.8% (inactive)"
- COMPOUND: "O=c1ccn(Cc2ccccc2)c(=O)[nH]1"
  growth inhibition: "25.6% (inactive)"
- COMPOUND: "O=c1c2c([nH]c3c1ccc1[nH]c4c(c(=O)c13)CCCC4)CCCC2"
  growth inhibition: "-18.9% (inactive)"
- COMPOUND: "CC1(C)S[C@@H]2[C@H](NC(=O)C3(N)CCCCC3)C(=O)N2[C@H]1C(=O)O"
  growth inhibition: "-11.8% (inactive)"
- COMPOUND: "N#Cc1c2nc3ccccc3nc2n2ccc3ccccc3c12"
  growth inhibition: "-50% (inactive)"

###

Assay: NCI Yeast Anticancer Drug Screen. Data for the sgs1 mgt1 strain (AID 161);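 also: 0% = growth of cultures given vehicle only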
Conditions: S. cerevisiae sgs1 mgt1 strain, at 50.0 µM, stronger effect = higher value
Compounds without any hit were thinned out: in the full panel of roughly 79,000, 15% have a hit. Calls of active or inactive are those of the source. Rule as the data show it: active = growth inhibition above about 70%; inactive = the rest.
EXPERIMENTAL READOUT: growth inhibition

- MOLECULE: "Cc1cc(Cl)cc(C)c1O"
  OBS VALUE: "6.15% (inactive)"
- MOLECULE: "COc1ccc2c(c1)s/c(=N/N)n2CCCS(=O)(=O)O"
  OBS VALUE: "20.9% (inactive)"
- MOLECULE: "O=Cc1ccc(C=O)cc1"
  OBS VALUE: "26.9% (inactive)"
- MOLECULE: "C=C1C(=O)OC2CC(C)C3CC(O)OC(OCC)C3(C)CC12 (stereo unspecified)"
  OBS VALUE: "12.4% (inactive)"
- MOLECULE: "Nc1nc(N)c2ncn(Cc3c(Cl)cccc3Cl)c2n1"
  OBS VALUE: "1.9% (inactive)"
- MOLECULE: "CC[n+]1c(-c2ccccc2)c2cc(NCCCN)ccc2c2ccc(N)cc21"
  OBS VALUE: "8.8% (inactive)"
- MOLECULE: "CCOP(=O)(Cc1c(C)cc(Br)c2ccccc12)OCC"
  OBS VALUE: "-0.95% (inactive)"
- MOLECULE: "COC(=O)CC(NC(=O)OCc1ccccc1)C(=O)NCC(=O)NCC(=O)O (stereo unspecified)"
  OBS VALUE: "-5.65% (inactive)"
- MOLECULE: "O=C1CCCC2=C(N1)C(=O)C=CC2=O"
  OBS VALUE: "17.1% (inactive)"
- MOLECULE: "Cc1cccc(NC(=O)c2cccc(C(=O)Nc3cccc(C)c3C)c2)c1C"
  OBS VALUE: "17.6% (inactive)"
- MOLECULE: "CC(NC(=O)c1cnc2ccccc2n1)C(=O)O (stereo unspecified)"
  OBS VALUE: "-29.8% (inactive)"
- MOLECULE: "CCC(C(O)c1ccc(Cl)cc1)C(O)(C(F)(F)F)C(F)(F)F (stereo unspecified)"
  OBS VALUE: "99.6% (active)"
- MOLECULE: "C/C(=N/NC(=S)Nc1ccccc1Cl)c1cccc(/C(C)=N\\NC(=S)Nc2ccccc2Cl)n1"
  OBS VALUE: "39.8% (inactive)"
- MOLECULE: "Cc1ccc(S(=O)(=O)OC2CC(C(C)(C)C)CCC2c2ccccc2)cc1 (stereo unspecified)"
  OBS VALUE: "-48.9% (inactive)"
- MOLECULE: "C/C(Cl)=N\\OC(=O)Nc1ccc([N+](=O)[O-])cc1"
  OBS VALUE: "85.8% (active)"
- MOLECULE: "NC(=O)NC=O"
  OBS VALUE: "14.7% (inactive)"
- MOLECULE: "O=S(O)CCCCCSSCCCCSSCCCCCS(=O)O"
  OBS VALUE: "11.5% (inactive)"
- MOLECULE: "OCC1COC(c2ccc(Cl)cc2)O1 (stereo unspecified)"
  OBS VALUE: "-19.8% (inactive)"
- MOLECULE: "NC(=O)N/N=C(/c1nc2ccc([N+](=O)[O-])cc2[nH]c1=O)C(O)c1ccco1 (stereo unspecified)"
  OBS VALUE: "-11.1% (inactive)"
- MOLECULE: "O=c1oc2ncccc2n1Cc1ccc([N+](=O)[O-])cc1"
  OBS VALUE: "1.25% (inactive)"
- MOLECULE: "N#CNc1nc(N)cc(N)n1"
  OBS VALUE: "-1.5% (inactive)"
- MOLECULE: "CN1c2ccccc2Nc2cc(C#N)ccc21"
  OBS VALUE: "14.8% (inactive)"
- MOLECULE: "COc1ccc(C(C)OC)cc1OC (stereo unspecified)"
  OBS VALUE: "15.6% (inactive)"
- MOLECULE: "C[C@H]1S[C@@H](c2ccc(Cl)cc2Cl)N(NC(=O)c2ccncc2)C1=O"
  OBS VALUE: "40% (inactive)"
- MOLECULE: "Cc1ccc(C(=O)NC(C)C)cc1N=NN(C)C"
  OBS VALUE: "-46.9% (inactive)"
- MOLECULE: "O=c1c(N2CCOCC2)c(N2CCOCC2)c1=O"
  OBS VALUE: "0.25% (inactive)"
- MOLECULE: "CSc1n[nH]c(NC(=O)c2ccccc2Cl)n1"
  OBS VALUE: "1.5% (inactive)"
- MOLECULE: "Cc1c2ccn3c(=O)c4ccccc4cc3c2c(C)c2c1[nH]c1ccccc12"
  OBS VALUE: "9.45% (inactive)"
- MOLECULE: "Nc1ncnc(N2CCOCC2)n1"
  OBS VALUE: "-8.15% (inactive)"
- MOLECULE: "NC(CCC(N)C(=O)O)C(=O)O (stereo unspecified)"
  OBS VALUE: "-25.2% (inactive)"
- MOLECULE: "CCC(=O)N1CCN(C(=O)CC)c2ccccc21"
  OBS VALUE: "-0.25% (inactive)"
- MOLECULE: "CC(C)(C#N)OC(=O)Nc1cccc(Cl)c1"
  OBS VALUE: "3.75% (inactive)"
- MOLECULE: "CNC(=O)c1ccccc1C(=O)c1ccccc1OC"
  OBS VALUE: "-3.05% (inactive)"
- MOLECULE: "CCOc1c(N2CCOCC2)c(=O)c1=O"
  OBS VALUE: "5.7% (inactive)"
- MOLECULE: "CC(=O)OCCn1c(Cc2ccc(C)cc2)nn(C(C)=O)c1=O"
  OBS VALUE: "11.8% (inactive)"
- MOLECULE: "O=C(COc1ccccc1)Nc1cccc2ccccc12"
  OBS VALUE: "6.6% (inactive)"
- MOLECULE: "O=C(O)c1ccc([N+](=O)[O-])cc1N(c1ccccc1)c1ccccc1"
  OBS VALUE: "40.1% (inactive)"
- MOLECULE: "O=C(Nc1ccc(Br)cc1)c1ccccc1"
  OBS VALUE: "0.35% (inactive)"
- MOLECULE: "Cc1ccc(S(=O)(=O)N/N=C2/CCCOC2)cc1"
  OBS VALUE: "59.6% (inactive)"
- MOLECULE: "CC1COC(C)(C)O1 (stereo unspecified)"
  OBS VALUE: "16.4% (inactive)"
- MOLECULE: "CC(COCc1ccccc1)C1OC(C)(C)OC(C#N)C1C (stereo unspecified)"
  OBS VALUE: "-4.8% (inactive)"
- MOLECULE: "CO[C@H](C)[C@@](O)(C(=O)OCC1=CCN2CCC[C@@H]12)C(C)C"
  OBS VALUE: "32.4% (inactive)"
- MOLECULE: "O=C(O)/C=C1/CCC(=O)O1"
  OBS VALUE: "0.05% (inactive)"
- MOLECULE: "CCOC(=O)NC(Nc1cccc(F)c1)(C(F)(F)F)C(F)(F)F"
  OBS VALUE: "-22.4% (inactive)"
- MOLECULE: "CCOC(=O)C1=C(Nc2ccc(Cl)c(Cl)c2)OC/C1=N\\NC(=O)Cc1ccccc1"
  OBS VALUE: "-4.05% (inactive)"
- MOLECULE: "CC(=O)Nc1ccc(S(=O)(=O)N/N=C\\CC(C)C)cc1"
  OBS VALUE: "-26.2% (inactive)"
- MOLECULE: "CCCCCCCCCCCCCCCCN (tested in a mixture with another compound)"
  OBS VALUE: "7.9% (inactive)"
- MOLECULE: "CC1=Nc2ccccc2N2C1=CC1=C(C(=O)c3cc4ccccc4cc3C1=O)C2C (stereo unspecified)"
  OBS VALUE: "5.75% (inactive)"
- MOLECULE: "CN(C)c1ccc(/C=C(/NC(=O)c2ccccc2)C(N)=O)cc1"
  OBS VALUE: "8.95% (inactive)"
- MOLECULE: "O=C(O)C(C(=O)O)C(c1ccccc1)c1ccccc1Br (stereo unspecified)"
  OBS VALUE: "28.1% (inactive)"
- MOLECULE: "Cn1nnnc1CCO"
  OBS VALUE: "-13.4% (inactive)"
